Test system: Tobacco mosaic virus
experiment description: In vivo antiviral activity against Tobacco mosaic virus (TMV) infected left side of tobacco leaves assessed as curative effect at 500 ug/ml treated after viral inoculation measured at 3-4 days after viral challenge
Type: functional
Give Activity for every item shown.
One number for each entry, in %.

The examples below pair each entry with its known result.
- Cc1ccc(-n2nc(C)c(/C=N/OCc3ccc(Cl)nc3)c2S(=O)(=O)c2ccc(F)cc2)cc1: 22
- COc1ccc(Sc2c(/C=N/OCc3ccc(Cl)nc3)c(C)nn2-c2ccc(Cl)cc2)cc1: 12.9
- Cc1ccc(S(=O)(=O)c2c(/C=N/OCc3ccc(Cl)nc3)c(C)nn2-c2ccc(Cl)cc2)cc1: 9.2
- Cc1nn(-c2cccc(Cl)c2)c(Sc2ccc(F)cc2)c1/C=N/OCc1ccc(Cl)nc1: 34.3
- Cc1nn(-c2ccc(Cl)cc2)c(Sc2ccc(F)cc2)c1/C=N/OCc1ccc(Cl)nc1: 37.3

Hi there! I need Activity for each item below, if you can.
1. Cc1nn(-c2ccc(Cl)cc2)c(S(=O)(=O)c2ccc(F)cc2)c1/C=N/OCc1ccc(Cl)nc1
2. Cc1ccc(Sc2c(/C=N/OCc3c(C)nn(-c4ccc(C)cc4)c3Cl)c(C)nn2-c2ccc(Cl)cc2)cc1
3. CNCC(=O)N[C@@H](CO)C(=O)N[C@H]1[C@H](O)[C@@H](O)[C@H](n2ccc(N)nc2=O)O[C@@H]1C(N)=O
4. Cc1nn(-c2ccccc2)c(S(=O)(=O)c2ccc(F)cc2)c1/C=N/OCc1ccc(Cl)nc1
5. Cc1nn(-c2ccccc2)c(Sc2ccc(F)cc2)c1/C=N/OCc1ccc(Cl)nc1
6. Cc1ccc(Sc2c(/C=N/OCc3ccc(Cl)nc3)c(C)nn2-c2ccc(C)cc2)cc1
7. Cc1ccc(Sc2c(/C=N/OCc3ccc(Cl)nc3)c(C)nn2-c2ccc(Cl)cc2)cc1
8. Cc1ccc(S(=O)(=O)c2c(/C=N/OCc3ccc(Cl)nc3)c(C)nn2-c2ccccc2)cc1

Completion:
7.7
18.9
54.8
21.7
24
32.1
26
9

Hi there! I need Activity for each item below, if you can.
1. Cc1ccc(-n2nc(C)c(/C=N/OCc3ccc(Cl)nc3)c2Sc2ccc(F)cc2)cc1
2. Cc1ccc(Sc2c(/C=N/OCc3c(C)nn(-c4ccc(C)cc4)c3Cl)c(C)nn2-c2ccc(C)cc2)cc1
3. Cc1ccc(Sc2c(/C=N/OCc3ccc(Cl)nc3)c(C)nn2-c2ccccc2)cc1
4. COc1ccc(S(=O)(=O)c2c(/C=N/OCc3ccc(Cl)nc3)c(C)nn2-c2ccc(Cl)cc2)cc1
5. Cc1ccc(-n2nc(C)c(CO/N=C/c3c(C)nn(-c4ccc(C)cc4)c3Sc3ccc(F)cc3)c2Cl)cc1

Completion:
22
38.9
47
3.6
22

====

Test system: Tobacco mosaic virus
experiment description: In vivo antiviral activity against Tobacco mosaic virus (TMV) infected left side of tobacco leaves assessed as curative effect at 500 ug/ml treated after viral inoculation measured at 3-4 days after viral challenge
Type: functional
Give Activity for every item shown.
Output should be the measured figure followed by the unit it is expressed in.

The examples below pair each entry with its known result.
* Cc1nn(-c2ccccc2)c(Sc2ccc(F)cc2)c1/C=N/OCc1c(C)nn(-c2ccc(Cl)cc2)c1Cl | 35.6%
* COc1ccc(S(=O)(=O)c2c(/C=N/OCc3ccc(Cl)nc3)c(C)nn2-c2ccccc2)cc1 | 15.6%
* Cc1ccc(-n2nc(C)c(/C=N/OCc3c(C)nn(-c4ccc(Cl)cc4)c3Cl)c2Sc2ccc(F)cc2)cc1 | 31.9%

Hi there! I need Activity for each item below, if you can.
1. Cc1nn(-c2cccc(Cl)c2)c(S(=O)(=O)c2ccc(F)cc2)c1/C=N/OCc1ccc(Cl)nc1
2. COc1ccc(Sc2c(/C=N/OCc3ccc(Cl)nc3)c(C)nn2-c2ccccc2)cc1

Completion:
1. 11%
2. 26.6%
